- MEASUREMENT CONTEXT: buffer; pH 7.4; 200.0 µM
OBSERVABLE: solubility kinetic

[in] Please look at this molecule and report its solubility kinetic: `CN(CCOc1ccccc1)CC(=O)Nc1cc([N+](=O)[O-])ccc1Cl`
[out] 13.7 µg/mL

[in] Please look at this molecule and report its solubility kinetic: `O=C(Nc1ccc(Nc2ccccc2)cc1)c1c(Cl)cccc1Cl`
[out] 1.2 µg/mL

[in] Please look at this molecule and report its solubility kinetic: `O=C(CSc1nc2ccc(Cl)cc2[nH]1)NC1CCCC1`
[out] 9.3 µg/mL

[in] Please look at this molecule and report its solubility kinetic: `O=C(Cc1ccc(Cl)c(Cl)c1)NC1CCCCCC1`
[out] 3.2 µg/mL

[in] Please look at this molecule and report its solubility kinetic: `Cn1cccc2[nH]c(=O)nc1-2`
[out] 15.5 µg/mL

[in] Please look at this molecule and report its solubility kinetic: O=S(=O)(c1ccc(F)cc1)N1CCCC1c1cccnc1 (stereo not given)
[out] > 46 µg/mL

[in] Please look at this molecule and report its solubility kinetic: `CN=C(C)/C(C(=O)OC)=C(/O)c1ccccc1F`
[out] 32.3 µg/mL

[in] Please look at this molecule and report its solubility kinetic: `N#CCCN1CCN(S(=O)(=O)c2ccc3c(c2)CCC3)CC1`
[out] > 47.9 µg/mL

[in] Please look at this molecule and report its solubility kinetic: `Cc1nc2ccccc2c(=O)n1-c1ccc([N+](=O)[O-])cc1`
[out] > 42.2 µg/mL

[in] Please look at this molecule and report its solubility kinetic: `Cc1sc2ncnc(SCC(=O)N3CCOCC3)c2c1C`
[out] 39.3 µg/mL

[in] Please look at this molecule and report its solubility kinetic: `O=C(COC(=O)c1cccc(Br)c1)NCCC1=CCCCC1`
[out] 2.5 µg/mL

[in] Please look at this molecule and report its solubility kinetic: `Cc1nc(NC(=O)/C=C/c2ccccc2)sc1C(=O)NCCO`
[out] 12.9 µg/mL

[in] Please look at this molecule and report its solubility kinetic: `CC(=O)Nc1ccc2c(c1)CCCC2`
[out] > 28.4 µg/mL

[in] Please look at this molecule and report its solubility kinetic: `COC(=O)c1c(C)oc(C)c1S(=O)(=O)NCc1cccs1`
[out] 43.4 µg/mL

[in] Please look at this molecule and report its solubility kinetic: `CC(C)CNC(=O)C(=O)NCCCN1CCOCC1`
[out] > 40.7 µg/mL

[in] Please look at this molecule and report its solubility kinetic: `O=[N+]([O-])c1ccc(C[n+]2cccc3ccccc32)cc1.[Cl-]`
[out] 41 µg/mL

[in] Please look at this molecule and report its solubility kinetic: `CN(C)CCCNC(=O)N1c2ccccc2Sc2ccccc21`
[out] > 49.1 µg/mL

[in] Please look at this molecule and report its solubility kinetic: `O=C(Nc1ccccc1Cl)c1ccc2nccnc2c1`
[out] > 42.6 µg/mL

[in] Please look at this molecule and report its solubility kinetic: `COCCn1c(SCC(=O)N2CCOCC2)nnc1-c1ccco1`
[out] > 52.9 µg/mL

[in] Please look at this molecule and report its solubility kinetic: `COc1cc(C(=O)NCc2ccc3[nH]c(C)cc3c2)cc(OC)c1OC`
[out] 12.5 µg/mL

[in] Please look at this molecule and report its solubility kinetic: CCC1CCCCN1C(=O)CSc1nc2ncccc2[nH]1 (stereo not given)
[out] > 45.7 µg/mL

[in] Please look at this molecule and report its solubility kinetic: `Cc1cccc(N2CCCn3c2nc2c3c(=O)[nH]c(=O)n2C)c1`
[out] > 46.7 µg/mL

[in] Please look at this molecule and report its solubility kinetic: `CCOC(=O)c1c(C=O)c2ccccc2n1Cc1ccccc1F`
[out] < 0.7 µg/mL

[in] Please look at this molecule and report its solubility kinetic: `Cc1cccc(C)c1NC(=S)NCc1ccccc1`
[out] > 40.6 µg/mL

[in] Please look at this molecule and report its solubility kinetic: `O=C(Nc1cccc(Cl)c1N1CCOCC1)c1ccco1`
[out] 5.7 µg/mL

====

- MEASUREMENT CONTEXT: buffer; pH 7.4; 200.0 µM
Would you mind telling me the reported solubility kinetic of each entry?

[in] Please look at this molecule and report its solubility kinetic: O=C(Cc1ccc([N+](=O)[O-])cc1)NC(C(=O)[O-])C(O)c1cccc([N+](=O)[O-])c1.[Na+] (centres undefined)
[out] > 61.7 µg/mL

[in] Please look at this molecule and report its solubility kinetic: `CC(=O)Nc1sc(-c2ccc(Cl)cc2)nc1-c1ccccc1`
[out] < 0.4 µg/mL

[in] Please look at this molecule and report its solubility kinetic: CCN1CCN(C(=O)C(C)Sc2nc3nc(C)cc(C)n3n2)CC1 (centres undefined)
[out] > 52.3 µg/mL

[in] Please look at this molecule and report its solubility kinetic: `Cc1ccccc1NCCC(=O)Nc1ccc(F)cc1`
[out] > 40.8 µg/mL

====

- MEASUREMENT CONTEXT: buffer; pH 7.4; 200.0 µM
OBSERVABLE: solubility kinetic

[in] Please look at this compound and report its solubility kinetic: `Cc1nnc(SCCCCSc2nnc(C)c(=O)[nH]2)[nH]c1=O`
[out] > 51.1 µg/mL

[in] Please look at this compound and report its solubility kinetic: Cc1ccc(C(=O)NC2CC3CCC(C2)N3C)cc1 (stereo not given)
[out] > 38.8 µg/mL

[in] Please look at this compound and report its solubility kinetic: `Cc1cc(C(=O)Nc2ccncc2)c(C)o1`
[out] > 32.4 µg/mL

[in] Please look at this compound and report its solubility kinetic: `CCOc1ccc(Nc2nc3c(C)cccc3cc2C#N)cc1`
[out] < 0.2 µg/mL

[in] Please look at this compound and report its solubility kinetic: `CC(=O)N1CCN(C(=O)CCCNC(=O)c2ccc(Cl)cc2)CC1`
[out] > 52.8 µg/mL

[in] Please look at this compound and report its solubility kinetic: `Cc1ccc2[nH]c(C(=O)N3CCN(c4cccc(Cl)c4)CC3)cc2c1`
[out] < 0.3 µg/mL

[in] Please look at this compound and report its solubility kinetic: `Cc1ccc(N=Cc2c(O)c3ccccc3oc2=O)cc1F`
[out] < 0.6 µg/mL

[in] Please look at this compound and report its solubility kinetic: `O=C(NCCCN1CCCC1=O)Nc1ccc([N+](=O)[O-])cc1`
[out] > 45.9 µg/mL

[in] Please look at this compound and report its solubility kinetic: `CCCNC(=O)C(=O)Nc1cc2c3c(c1)CCC(=O)N3CCC2`
[out] > 47.3 µg/mL

[in] Please look at this compound and report its solubility kinetic: COc1ccc(CCN2CC(C(=O)Nc3nccs3)CC2=O)cc1OC (stereo not given)
[out] > 56.3 µg/mL

====

- MEASUREMENT CONTEXT: buffer; pH 7.4; 200.0 µM
Would you mind telling me the reported solubility kinetic of each entry?

[in] Please look at this molecule and report its solubility kinetic: `O=[N+]([O-])c1ccccc1S(=O)(=O)N/C(=N/S(=O)(=O)c1ccccc1)c1ccccc1`
[out] > 66.8 µg/mL

[in] Please look at this molecule and report its solubility kinetic: `COc1cccc(CNCCc2ccc3c(c2)OCO3)c1OC.O=C(O)C(=O)O`
[out] > 60.8 µg/mL

[in] Please look at this molecule and report its solubility kinetic: `COCCCNC(=O)c1cc2cc3cc(OC)ccc3nc2o1`
[out] > 47.2 µg/mL

[in] Please look at this molecule and report its solubility kinetic: O=C(COC(=O)c1cc(S(=O)(=O)N2CCCCC2)ccc1Cl)NC1CCS(=O)(=O)C1 (centres undefined)
[out] > 71.8 µg/mL

[in] Please look at this molecule and report its solubility kinetic: `CCCCCc1c(O)nc(SCCN(CC)CC)[nH]c1=O.Cl`
[out] > 52.5 µg/mL

[in] Please look at this molecule and report its solubility kinetic: Cc1cc(C)cc(C(=O)N(C)C2CCCN(Cc3ccccc3F)C2)c1 (centres undefined)
[out] > 53.2 µg/mL

[in] Please look at this molecule and report its solubility kinetic: CCn1c(=O)c(C(=O)NC(C)c2ccccc2)c(O)c2ccccc21 (centres undefined)
[out] < 0.4 µg/mL

[in] Please look at this molecule and report its solubility kinetic: `COC(=O)[C@H](CC(C)C)NC(=O)Nc1ccc(S(N)(=O)=O)cc1`
[out] > 51.5 µg/mL

[in] Please look at this molecule and report its solubility kinetic: CC1CCN(C(C(=O)O)c2ccccc2)CC1.Cl (centres undefined)
[out] > 40.5 µg/mL

[in] Please look at this molecule and report its solubility kinetic: `Cc1ccc(CN2C(=O)CNC2=S)cc1`
[out] > 33 µg/mL

[in] Please look at this molecule and report its solubility kinetic: `CC(=O)Nc1ccc(NC(=O)c2nccnc2C(=O)O)cn1`
[out] > 45.2 µg/mL

[in] Please look at this molecule and report its solubility kinetic: `O=[N+]([O-])c1ccccc1Nc1c2ccccc2nc2ccccc12`
[out] < 0.2 µg/mL

[in] Please look at this molecule and report its solubility kinetic: `COc1ccc2cc(C(N)=O)c(=Nc3ccc(C)cc3)oc2c1`
[out] < 0.3 µg/mL

[in] Please look at this molecule and report its solubility kinetic: `Cc1ccc2c(c1)c1nc3ccccc3nc1n2C`
[out] < 0.2 µg/mL

[in] Please look at this molecule and report its solubility kinetic: CC1CCC2(CC1)NC(=O)N(CC(=O)Nc1ccc(C(N)=O)cc1)C2=O (centres undefined)
[out] > 53.8 µg/mL

[in] Please look at this molecule and report its solubility kinetic: `NC(=O)C1CCN(C(=O)Cc2ccc(-c3ccccc3)cc2)CC1`
[out] > 48.4 µg/mL

[in] Please look at this molecule and report its solubility kinetic: `C=CCn1c(P(C)(=O)[O-])nc2ccccc21.[K+]`
[out] > 41.1 µg/mL

[in] Please look at this molecule and report its solubility kinetic: `CC(=O)NCCc1nc2cc(NC(=O)c3ccc(F)cc3)ccc2n1C`
[out] > 53.2 µg/mL

[in] Please look at this molecule and report its solubility kinetic: O=C(O)CC(NC(=O)C12CC3CC(CC(C3)C1)C2)c1ccc(F)cc1 (centres undefined)
[out] > 51.8 µg/mL

Hello, the source for this data is PubChem BioAssay AID1996, in case you need it.
